Where these numbers come from: patent US11964973B2

tested on: Human venous whole blood (IFN-γ); experiment: Human whole blood IFN-γ assay; assay type: cell-based; details: Homo sapiens, human whole blood IFN-γ; read-out: INFg Whole Blood
recorded_metric: pEC50
Note on units: pEC50 is unitless, being -log10 of a concentration expressed in mol/L.

Bench note, Human venous whole blood (IFN-γ): C[C@@H]1CN(c2cc(=O)n(C)c3ccc(C#N)nc23)CC[C@@H]1Oc1ccc(C2CC2)cn1 , pEC50 reads 5.24

Field pEC50 (system: Human venous whole blood (IFN-γ)) for entry C[C@@H]1CN(c2cc(=O)n(C)c3ccc(C(N)=O)nc23)CC[C@@H]1OCc1ccc(OC(F)(F)F)cc1 (racemic) = 4.70

Record CCC(C)(C)c1ccc(O[C@@H]2CCN(c3c(C#N)c(=O)n(C)c4ccc(C#N)nc34)C[C@H]2C)cc1 (single isomer, unassigned) ; system Human venous whole blood (IFN-γ); pEC50 = 6.29

Assay Human venous whole blood (IFN-γ), sample Cn1c(=O)nc(N2CC[C@@H](Oc3cccc(C(F)(F)F)c3)[C@H](O)C2)c2nc(Cl)ccc21 (racemic) , pEC50 read: 4.70

Entry C[C@@H]1CN(c2cc(=O)n(C)c3ccc(C#N)nc23)CC[C@@H]1Oc1ccc(C(F)(F)F)cn1 (single isomer, unassigned) [Example 226] ; assay system Human venous whole blood (IFN-γ); pEC50 recorded at 5.62
